Assay: in vitro
Settings: human, hela cells, % viability
REPORTED_PROPERTY: viability at 28.5 h, 10 µM (%)
// return numeric value only (unit: %, not printed)

| COMPOUND | REPORTED_VALUE |
| --- | --- |
| COc1ccc(C(C)C)cc1-c1nc2ncccc2cc1NC(=O)C(C)C | 87.8 |
| CCc1[nH]nc(C)c1Cc1c(Cl)cccc1Cl | 106 |
| Cc1ccc2nc(COC(=O)c3cc(-c4ccccc4)nn3-c3ccccc3)cc(=O)n2c1 | 89.8 |
| Cc1sc(-c2c(F)cccc2F)nc1O | 102 |
| O=[N+]([O-])c1ccccc1NC1OCC(O)C(O)C1O (stereo not shown) | 90.3 |

Q. Tell me measured viability at 28.5 h, 10 µM for `O=C(O)c1cc(S(=O)(=O)N2CCOCC2)ccc1F` please.
A. 106

Q. Look up and state reported viability at 28.5 h, 10 µM for CCC(C(=O)Nc1cc(OC)c(OC)cc1C(=O)O)c1ccccc1 (stereo not shown)
A. 106

Q. For the compound `Cc1ccc(NC(=O)NCCC2=CCCCC2)cc1Cl` , report viability at 28.5 h, 10 µM.
A. 110

Q. Indicate the recorded viability at 28.5 h, 10 µM value for this compound: `c1ccc2c(-c3cc(Nc4ccc5[nH]ccc5c4)ncn3)cccc2c1`
A. 42.9

Q. Consider the compound `O=C(c1ccncc1)N1CCN(S(=O)(=O)c2ccccc2[N+](=O)[O-])CC1` . State its measured viability at 28.5 h, 10 µM.
A. 92.6

---

Experiment: in vitro
Details: human, hela cells, % viability
Measured viability at 28.5 h, 10 µM, listed per entry for reference.
Field: numeric (%). Do not append units.

Solved entries:
| COMPOUND | UNIT_ABBREV | viability at 28.5 h, 10 µM |
| --- | --- | --- |
| O=C(Cc1ccc(F)cc1)N1CCn2c(nnc2C2CC2)C1 | % | 113 |
| COc1ccc(S(=O)(=O)N(C)CC(=O)N2CCN(C)CC2)cc1C | % | 100 |
| O=C(Nc1ccccc1)[C@H]1O[C@H](CCN2CCN(c3ccccc3)CC2)CC[C@@H]1O | % | 84.1 |
| CCOC(=O)CCCNC(=O)N1CCN(c2ccccc2OC)CC1 | % | 95.9 |

Q. Query viability at 28.5 h, 10 µM for O=C(O)C(Cc1cnc[nH]1)N1C(=O)c2ccccc2C1=O (stereo not shown)
A. 110

Q. Give the value of viability at 28.5 h, 10 µM reported for the following: CC(=O)N1CCC(O)(C2(C)OC(NC3C4CC5CC(C4)CC3C5)=NC2=O)CC1 (stereo not shown)
A. 91.8

---

Assay: in vitro
Settings: human, hela cells, % viability
Recorded viability at 28.5 h, 10 µM, one value per entry.
Please state the figure in %; there is no need to write the unit.

| MOLECULE | viability at 28.5 h, 10 µM [%] |
| --- | --- |
| CCOc1cccc(-c2cncc(NC(C)CCCC(C)(C)O)n2)c1 (stereo not drawn) | 95.6 |
| Fc1ccccc1COc1ccccc1CNCCN1CCOCC1 [CBK278222C] | 96.4 |

Q. Supply recorded viability at 28.5 h, 10 µM for `CN(C)CCNC(=O)c1cc(-c2cccnc2)nc2c(Cl)cccc12` here.
A. 112

Q. Entry `Cc1ccc(Oc2ccc(C(=O)NCC(=O)O)cc2)cc1C` needs its viability at 28.5 h, 10 µM filled in; supply it.
A. 84.5

Q. Complete the entry with viability at 28.5 h, 10 µM for `CC(C)Nc1cccnc1N1CCN(C(=O)c2ccncc2)CC1`
A. 79

Q. Consider the molecule `COc1ccc(C(=O)N2CC[C@H]3CC(=O)N(CCN4CCNC4=O)CC[C@H]3C2)cc1` . State its measured viability at 28.5 h, 10 µM.
A. 110

Q. In one line, give reported viability at 28.5 h, 10 µM of the entry `O=C(CSc1n[nH]c(=O)n1C1CC1)NCCCSc1ccccc1` .
A. 104

Q. Fill in reported viability at 28.5 h, 10 µM for this entry: `CCOc1ccc(C(=O)Nc2nonc2CC)cc1`
A. 94.3

Q. Answer with reported viability at 28.5 h, 10 µM of COc1ccc(C=C2CCCC3C2=NN(C(=O)CCC(=O)O)C3c2ccc(OC)c(OC)c2)cc1OC (stereo not drawn)
A. 107

---

Reported viability at 28.5 h, 10 µM values for the following compounds.
Experiment: in vitro
Details: human, hela cells, % viability
A number alone suffices; assume %.

| COMPOUND | REPORTED_PROPERTY | REPORTED_VALUE |
| --- | --- | --- |
| CC(C)C(=O)Nc1ccc2[nH]cc(C(C(=O)O)N3CCN(c4ccccc4)CC3)c2c1 (centres unmarked) [CBK286645] | viability at 28.5 h, 10 µM | 85.7 |

Q. Identify the reported viability at 28.5 h, 10 µM for the following entry. N#Cc1cccc(S(=O)(=O)Nc2cccc(C(=O)O)c2)c1 [CBK155699]
A. 95.7

Q. # return recorded viability at 28.5 h, 10 µM for entry CN1CCc2c(sc3nc(SCc4cccc5ccccc45)n(-c4ccccc4)c(=O)c23)C1 [CBK264556]
A. 124

Q. Give the reported value of viability at 28.5 h, 10 µM for this record: Cc1ccc(NC(=S)NCCNc2ccccn2)cc1Cl [CBK297544]
A. 105

Q. Please give the documented viability at 28.5 h, 10 µM of Cc1cc(C)nc(Nc2n[nH]c(Cc3ccccc3)n2)n1 [CBK267023]
A. 96.3

---

Test: in vitro
Conditions: human, hela cells, % viability
REPORTED_PROPERTY: viability at 28.5 h, 10 µM (%)
Provide the reading as a plain figure in %.

Reference set (5 entries):
| COMPOUND | REPORTED_VALUE |
| --- | --- |
| Cc1cc(N2CCC(O)CC2)nc(N)n1 [CBK167265] | 109 |
| Cc1cc(C)nc(SCC(=O)c2ccc(F)cc2)n1 [CBK092116] | 82.1 |
| CCC(CCO)CNc1ncnc2ccc(S(C)(=O)=O)cc12 (centres unmarked) [CBK305157] | 84 |
| OC1(c2nnsc2-c2ccccc2)CCCC1 [CBK007956] | 90.2 |
| CC1(c2[nH]nc(N)c2Cc2c(Cl)cccc2Cl)CC1 [CBK115483T] | 92.3 |

Q. Let me know recorded viability at 28.5 h, 10 µM for Cc1cnn(C2CCCN(C(=O)CC3OCCc4sccc43)C2)c1 (centres unmarked) [CBK305329] , thanks.
A. 84.6

Q. Fill in viability at 28.5 h, 10 µM for record CC(=O)NCC1CC(N2CCSCC2)=NO1 (centres unmarked) [CBK010367]
A. 85

Q. Provide only the value of recorded viability at 28.5 h, 10 µM for O=C(O)CCSc1nc2ccccc2nc1C(F)(F)F [CBK107866]
A. 93.7

Q. Identify measured viability at 28.5 h, 10 µM corresponding to CN(C)CCN1C(=O)C(O)=C(C(=O)c2ccc(S(=O)(=O)N3CCOCC3)cc2)C1c1ccccc1 (centres unmarked) [CBK264668]
A. 100

Q. Identify measured viability at 28.5 h, 10 µM associated with CNC(=O)c1cccc(NC(=O)c2cc(-c3cccnc3)cnc2NCc2ccc3c(c2)OCO3)c1 [CBK076291]
A. 89.4

Q. Read the entry CC1CN(C(=S)Nc2ccc3ccccc3c2)CC(C)O1 (centres unmarked) [CBK004993] and write its reported viability at 28.5 h, 10 µM.
A. 102

Q. Supply reported viability at 28.5 h, 10 µM belonging to this compound: O=C(Nc1ccccc1)Nc1ccc([N+](=O)[O-])cc1 [CBK016975]
A. 99.6

Q. Indicate its recorded viability at 28.5 h, 10 µM; the compound in question is CC(C)N1CCN(Cc2c(C(F)(F)F)[nH]c3ncccc23)CC1 [CBK285354]
A. 88.3

Q. For the compound CC(=O)N1CCC(C(=O)NCCc2cccc(C)c2)C1 (centres unmarked) [CBK281952] , give its reported viability at 28.5 h, 10 µM.
A. 110

Q. Output viability at 28.5 h, 10 µM of CCC(=O)c1cc(F)c(N2CCN(C(=O)c3cccs3)CC2)cc1C [CBK033892]
A. 104

Q. State, in one line, measured viability at 28.5 h, 10 µM of OCCCNC(c1ccccc1)c1ccc(O)cc1 (centres unmarked) [CBK266329]
A. 97.2

Q. Supply recorded viability at 28.5 h, 10 µM for c1ccc(-c2nc(-c3ccncc3)sc2-c2ccccc2)cc1 [CBK291203] here.
A. 116

Q. For COc1ccccc1N1CCN(/N=C\c2ccccc2OCC(=O)O)CC1 [CBK263173C] , write its viability at 28.5 h, 10 µM.
A. 93.5

Q. Given the compound Nc1ncn([C@H]2C[C@@H](O)[C@@H](CO)O2)c(=O)n1 [CBK201329] , write its reported viability at 28.5 h, 10 µM.
A. 92.8

Q. Using known records, supply viability at 28.5 h, 10 µM for O=C(COc1cccc(Br)c1)Nc1nnc[nH]1 [CBK264063]
A. 94.1
